Biological target: BRD4(BD1) (Homo sapiens (Human), UniProt O60885)
Test: In vitro bromodomain inhibition assay (AlphaLISA, H4-tetraacetyl peptide)
Details: His-tagged BRD4 BD1 200 nM, biotinylated H4-tetraacetyl peptide 200 nM
pIC50: −log10 of the molar value.
parameter: pIC50

compound | pIC50
Cc1cc(-c2ccc3c(c2)N(Cc2ccc(F)cc2)C(=O)CC3)cn(C)c1=O | 6.15

1. Cc1cc(-c2ccc3c(c2)N(C(C)c2ccccc2)C(=O)CC3)cn(C)c1=O (single isomer, unassigned) [Compound 12]
2. Cc1cc(-c2ccc3c(c2)N(C(C)c2ccccc2)C(=O)CC3)cn(C)c1=O (single isomer, unassigned) [Compound 13]
**Q:** Hi team, can someone confirm which has the larger pIC50: 1 or 2 ? Thanks. Indicate which entry you chose by stating its label.
**A:** 2
